- Tested on: 885724-159-R-J1-PDC complex spheroid viability
- protocol.summary: Anticancer human tumor 885724-159-R-J1-PDC patient-derived pancreatic adenocarcinoma cell line growth inhibition [GQUAD]
- setup.conditions: second compound 0.1 µM; first compound 0.0999 µM; stronger effect = lower value
readout: viability, T/C (%)
Numbers only, in %.

molecule	value.unit	viability, T/C
Cc1[nH]c2ccccc2c1CCNCc1ccc(/C=C/C(=O)NO)cc1 + Cc1cnc(CNC(=O)c2c(=O)c3ccc(N4CCCN(C)CC4)nc3n3c2sc2ccccc23)cn1	%	67.2
CCc1c2c(nc3ccc(O)cc13)-c1cc3c(c(=O)n1C2)COC(=O)[C@]3(O)CC + CN(C)c1ccc(Nc2c3ccc(NC(=O)CCN4CCCC4)cc3nc3cc(NC(=O)CCN4CCCC4)ccc23)cc1	%	51.1
Cc1[nH]c2ccccc2c1CCNCc1ccc(/C=C/C(=O)NO)cc1 + CN(C)c1ccc(Nc2c3ccc(NC(=O)CCN4CCCC4)cc3nc3cc(NC(=O)CCN4CCCC4)ccc23)cc1	%	105
CC[C@@]1(O)C(=O)OCc2c1cc1n(c2=O)Cc2cc3c(CN(C)C)c(O)ccc3nc2-1 + Cc1[nH]c2ccc(F)cc2c1-c1nc2c3cccnc3c3ncccc3c2[nH]1	%	87.8

API: the following record is the query input.
Data request: # return recorded viability, T/C for input CC[C@@]1(O)C(=O)OCc2c1cc1n(c2=O)Cc2cc3c(CN(C)C)c(O)ccc3nc2-1 + Cc1cnc(CNC(=O)c2c(=O)c3ccc(N4CCCN(C)CC4)nc3n3c2sc2ccccc23)cn1
Data returned: 85.5

====

- System: 885724-159-R-J1-PDC complex spheroid viability
- protocol.summary: Anticancer human tumor 885724-159-R-J1-PDC cell line growth inhibition [GQUAD];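 further: spheroids exposed to agents for seven days before readout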
- setup.conditions: curve of first compound; second compound 0.0316 µM
readout: pIC50
Give bare numbers, as −log10 of the molar value.

compound	readout	result.value
CCc1c2c(nc3ccc(O)cc13)-c1cc3c(c(=O)n1C2)COC(=O)[C@]3(O)CC + Cc1[nH]c2ccc(F)cc2c1-c1nc2c3cccnc3c3ncccc3c2[nH]1	pIC50	6.94
C#Cc1c(F)ccc2cc(O)cc(-c3ncc4c(N5CC6CCC(C5)N6)nc(OCC56CCCN5CC(F)C6)nc4c3F)c12 (stereo not given) + Cc1cnc(CNC(=O)c2c(=O)c3ccc(N4CCCN(C)CC4)nc3n3c2sc2ccccc23)cn1	pIC50	5.22

Field: pIC50. Fill in for each record below.
1. COc1cccc2c1C(=O)c1c(O)c3c(c(O)c1C2=O)CC(O)(C(=O)CO)CC3OC1CC(N)C(O)C(C)O1 (stereo not given) + Cc1[nH]c2ccc(F)cc2c1-c1nc2c3cccnc3c3ncccc3c2[nH]1
2. Cc1[nH]c2ccccc2c1CCNCc1ccc(/C=C/C(=O)NO)cc1 + Cc1[nH]c2ccc(F)cc2c1-c1nc2c3cccnc3c3ncccc3c2[nH]1

Data returned:
5.71
6.57

====

- Tested on: 885724-159-R-J1-PDC complex spheroid viability
- protocol.summary: Anticancer human tumor 885724-159-R-J1-PDC cell line growth inhibition [GQUAD];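 further: spheroids exposed to agents for seven days before readout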;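 on viability, T/C: percent of vehicle control viability where 100% = DMSO wells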
- setup.conditions: second compound 10 µM; first compound 10 µM; stronger effect = lower value
Definition: the class of an entry is the range in band A (below 7%), band B (7% to below 60%), band C (60% or more) that contains its viability, T/C.

Worked cases, answers included:
molecule	assigned.category
CC(=O)O[C@H]1C(=O)[C@@]2(C)[C@H]([C@H](OC(=O)c3ccccc3)[C@]3(O)C[C@H](OC(=O)[C@H](O)[C@@H](NC(=O)c4ccccc4)c4ccccc4)C(C)=C1C3(C)C)[C@]1(OC(C)=O)CO[C@@H]1C[C@@H]2O + Cc1cnc(CNC(=O)c2c(=O)c3ccc(N4CCCN(C)CC4)nc3n3c2sc2ccccc23)cn1	band C
CC1COCCN1c1cc(C2(O)CC3CCC(C2)O3)c2cnn(-c3ccn[nH]3)c2n1 (stereo unspecified) + Cc1cnc(CNC(=O)c2c(=O)c3ccc(N4CCCN(C)CC4)nc3n3c2sc2ccccc23)cn1	band B
O=c1[nH]cc(F)c(=O)[nH]1 + Cc1[nH]c2ccc(F)cc2c1-c1nc2c3cccnc3c3ncccc3c2[nH]1	band C
CCCS(=O)(=O)Nc1ccc(F)c(C(=O)c2c[nH]c3ncc(-c4ccc(Cl)cc4)cc23)c1F + CN(C)c1ccc(Nc2c3ccc(NC(=O)CCN4CCCC4)cc3nc3cc(NC(=O)CCN4CCCC4)ccc23)cc1	band B
COc1cccc2c1C(=O)c1c(O)c3c(c(O)c1C2=O)CC(O)(C(=O)CO)CC3OC1CC(N)C(O)C(C)O1 (stereo unspecified) + Cc1cnc(CNC(=O)c2c(=O)c3ccc(N4CCCN(C)CC4)nc3n3c2sc2ccccc23)cn1	band A
CC(C)(O)C1CCC(Nc2ccc3ncc(-c4cccc(C(F)(F)F)c4)n3n2)CC1 (stereo unspecified) + Cc1cnc(CNC(=O)c2c(=O)c3ccc(N4CCCN(C)CC4)nc3n3c2sc2ccccc23)cn1	band A

Data request: // return the class label for COc1cccc2c1C(=O)c1c(O)c3c(c(O)c1C2=O)CC(O)(C(=O)CO)CC3OC1CC(N)C(O)C(C)O1 (stereo unspecified) + CN(C)c1ccc(Nc2c3ccc(NC(=O)CCN4CCCC4)cc3nc3cc(NC(=O)CCN4CCCC4)ccc23)cc1
Data returned: band A

Data request: // return the class label for Nc1ccn(C2OC(CO)C(O)C2(F)F)c(=O)n1 (stereo unspecified) + Cc1[nH]c2ccc(F)cc2c1-c1nc2c3cccnc3c3ncccc3c2[nH]1
Data returned: band C

Data request: // return the class label for CC1COCCN1c1cc(C2(O)CC3CCC(C2)O3)c2cnn(-c3ccn[nH]3)c2n1 (stereo unspecified) + Cc1[nH]c2ccc(F)cc2c1-c1nc2c3cccnc3c3ncccc3c2[nH]1
Data returned: band B

Data request: // return the class label for CC1COCCN1c1cc(C2(S(C)(=N)=O)CC2)nc(-c2ccnc3[nH]ccc23)n1 (stereo unspecified) + CN(C)c1ccc(Nc2c3ccc(NC(=O)CCN4CCCC4)cc3nc3cc(NC(=O)CCN4CCCC4)ccc23)cc1
Data returned: band C

Data request: // return the class label for O=C(NO)c1cnc(N2CCN(S(=O)(=O)c3ccc4ccccc4c3)CC2)nc1 + Cc1[nH]c2ccc(F)cc2c1-c1nc2c3cccnc3c3ncccc3c2[nH]1
Data returned: band A

====

- System: 885724-159-R-J1-PDC complex spheroid viability
- protocol.summary: Anticancer human tumor 885724-159-R-J1-PDC cell line growth inhibition [GQUAD];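 further: spheroids exposed to agents for seven days before readout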;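 on viability, T/C: percent of vehicle control viability where 100% = DMSO wells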
- setup.conditions: second compound 0.1 µM; first compound 3.16 µM; stronger effect = lower value
Please respond with t when measured viability, T/C is strictly beneath 60%, and with f in all other cases.

Worked cases, answers included:
compound	assigned.category
Cc1cccc(N(C)C(=O)C2C(O)CCN2c2nc(C)cc(C(F)(F)F)c2C#N)c1 (stereo not given) + CN(C)c1ccc(Nc2c3ccc(NC(=O)CCN4CCCC4)cc3nc3cc(NC(=O)CCN4CCCC4)ccc23)cc1	f
O=C(NO)c1cnc(N2CCN(S(=O)(=O)c3ccc4ccccc4c3)CC2)nc1 + CN(C)c1ccc(Nc2c3ccc(NC(=O)CCN4CCCC4)cc3nc3cc(NC(=O)CCN4CCCC4)ccc23)cc1	t
COc1ncnc(C2CC2)c1-c1ncc2cnn(Cc3ccc(-c4nc(C(F)(F)F)cn4C(C)C)cc3)c2n1 + Cc1[nH]c2ccc(F)cc2c1-c1nc2c3cccnc3c3ncccc3c2[nH]1	f
CC1COCCN1c1cc(-c2ccnn2C)c2ccnc(-c3ccn[nH]3)c2n1 (stereo not given) + Cc1[nH]c2ccc(F)cc2c1-c1nc2c3cccnc3c3ncccc3c2[nH]1	f

Lab note: next compound to report on.
Data request: Criterion: viability, T/C strictly below 60%. Is it met by CCCS(=O)(=O)Nc1ccc(F)c(C(=O)c2c[nH]c3ncc(-c4ccc(Cl)cc4)cc23)c1F + Cc1[nH]c2ccc(F)cc2c1-c1nc2c3cccnc3c3ncccc3c2[nH]1 ?
Data returned: f

====

- Test system: 885724-159-R-J1-PDC complex spheroid viability
- protocol.summary: Anticancer human tumor 885724-159-R-J1-PDC cell line growth inhibition [GQUAD];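 further: spheroids exposed to agents for seven days before readout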
- setup.conditions: curve of first compound; second compound 0.0316 µM
- Excerpt: DNA G-quadruplex Stabilizer Agents in Combinations in Complex Spheroids A high-throughput screen of multi-cell type tumor spheroids was designed to identify active combinations of DNA G-quadruplex stabilizer agents and targeted small molecules. […] Compounds. […] If the clinical Cmax for an agent had not been determined, the highest concentration tested was 10 microM. […]
readout: pIC50
One number for each entry, as −log10 of the molar value.

compound	pIC50
CC1COCCN1c1cc(C2(O)CC3CCC(C2)O3)c2cnn(-c3ccn[nH]3)c2n1 (stereo not given) + Cc1cnc(CNC(=O)c2c(=O)c3ccc(N4CCCN(C)CC4)nc3n3c2sc2ccccc23)cn1	5.95

API: the following record is the query input.
Data request: # return recorded pIC50 for input C#Cc1c(F)ccc2cc(O)cc(-c3ncc4c(N5CC6CCC(C5)N6)nc(OCC56CCCN5CC(F)C6)nc4c3F)c12 (stereo not given) + Cc1[nH]c2ccc(F)cc2c1-c1nc2c3cccnc3c3ncccc3c2[nH]1
Data returned: 5.39
